Value source: patent US7482379B2

Target: Gingipain K (Porphyromonas gingivalis, UniProt Q51817)
Sequence (Q51817 229-1732 limits assumed): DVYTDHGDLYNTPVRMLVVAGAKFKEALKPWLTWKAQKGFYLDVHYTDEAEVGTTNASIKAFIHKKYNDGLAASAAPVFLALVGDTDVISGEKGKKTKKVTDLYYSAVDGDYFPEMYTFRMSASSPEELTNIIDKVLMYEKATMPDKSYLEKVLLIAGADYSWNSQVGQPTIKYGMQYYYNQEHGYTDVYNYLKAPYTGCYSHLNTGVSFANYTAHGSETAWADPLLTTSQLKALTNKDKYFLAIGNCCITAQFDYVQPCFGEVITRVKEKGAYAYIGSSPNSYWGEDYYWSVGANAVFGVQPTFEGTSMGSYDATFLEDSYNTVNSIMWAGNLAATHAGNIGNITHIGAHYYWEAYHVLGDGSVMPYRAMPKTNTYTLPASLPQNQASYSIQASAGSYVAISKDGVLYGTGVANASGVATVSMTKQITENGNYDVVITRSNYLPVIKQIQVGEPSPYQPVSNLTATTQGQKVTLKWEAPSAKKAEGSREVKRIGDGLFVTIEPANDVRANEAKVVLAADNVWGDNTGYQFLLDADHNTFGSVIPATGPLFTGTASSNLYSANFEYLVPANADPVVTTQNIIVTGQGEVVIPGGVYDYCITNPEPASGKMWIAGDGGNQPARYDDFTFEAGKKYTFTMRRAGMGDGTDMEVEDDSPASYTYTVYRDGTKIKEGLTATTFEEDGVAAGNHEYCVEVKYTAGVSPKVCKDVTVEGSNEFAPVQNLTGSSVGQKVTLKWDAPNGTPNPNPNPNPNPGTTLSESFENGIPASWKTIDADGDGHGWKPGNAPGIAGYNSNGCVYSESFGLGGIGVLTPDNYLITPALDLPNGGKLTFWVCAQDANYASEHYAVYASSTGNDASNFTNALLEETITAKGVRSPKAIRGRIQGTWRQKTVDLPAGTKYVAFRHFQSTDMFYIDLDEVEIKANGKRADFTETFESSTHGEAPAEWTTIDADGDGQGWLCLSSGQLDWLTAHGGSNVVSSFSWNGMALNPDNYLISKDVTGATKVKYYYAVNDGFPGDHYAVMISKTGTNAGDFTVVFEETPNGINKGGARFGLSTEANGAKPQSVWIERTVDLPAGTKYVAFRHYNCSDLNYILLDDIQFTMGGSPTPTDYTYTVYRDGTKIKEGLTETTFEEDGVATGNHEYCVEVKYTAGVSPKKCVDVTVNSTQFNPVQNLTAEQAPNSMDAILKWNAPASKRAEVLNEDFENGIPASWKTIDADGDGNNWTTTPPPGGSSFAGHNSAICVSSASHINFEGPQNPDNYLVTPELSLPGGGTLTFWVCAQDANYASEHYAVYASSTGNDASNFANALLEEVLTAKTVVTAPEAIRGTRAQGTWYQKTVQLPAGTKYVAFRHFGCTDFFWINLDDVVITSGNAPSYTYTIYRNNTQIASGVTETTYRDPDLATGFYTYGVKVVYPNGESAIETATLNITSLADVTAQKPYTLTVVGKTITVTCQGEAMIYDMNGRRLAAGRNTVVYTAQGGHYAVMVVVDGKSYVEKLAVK
Assay: biochemical
Assay type: biochemical
Conditions: pH 8, read-out: kobs/[I] Gingipain K
Each entry below carries its recorded kinact/KI.
Respond with the figure and its unit, in that order.

molecule	kinact/KI
C[C@H](NC(=O)OCc1ccccc1)C(=O)N[C@@H](C)C(=O)NN(CC(N)=O)C(=O)/C=C/C(=O)N(C)Cc1ccccc1 [Cbz-Ala-Ala-AAsn-CH═CH—CON(CH3)Bzl]	1 M⁻¹ s⁻¹
C[C@H](NC(=O)OCc1ccccc1)C(=O)N[C@@H](C)C(=O)NN(CC(N)=O)C(=O)/C=C/C(=O)N(Cc1ccccc1)Cc1ccccc1 [Cbz-Ala-Ala-AAsn-CH═CH—CON(Bzl)2]	2 M⁻¹ s⁻¹
C[C@H](NC(=O)OCc1ccccc1)C(=O)N[C@@H](C)C(=O)NN(CC(N)=O)C(=O)/C=C/C(=O)N1CCc2ccccc21 [Cbz-Ala-Ala-AAsn-CH═CH—CO-indoline]	1 M⁻¹ s⁻¹

Turning now to a further molecule:
Give a short answer stating reported kinact/KI for CCOC(=O)/C=C/C(=O)N(CC(N)=O)NC(=O)[C@H](C)NC(=O)[C@H](C)NC(=O)OCc1ccccc1 [Cbz-Ala-Ala-AAsn-CH═CH—COOEt] .
6 M⁻¹ s⁻¹
